Target: Arginase-2, mitochondrial (Homo sapiens) (UniProt P78540)
Sequence (P78540 whole entry): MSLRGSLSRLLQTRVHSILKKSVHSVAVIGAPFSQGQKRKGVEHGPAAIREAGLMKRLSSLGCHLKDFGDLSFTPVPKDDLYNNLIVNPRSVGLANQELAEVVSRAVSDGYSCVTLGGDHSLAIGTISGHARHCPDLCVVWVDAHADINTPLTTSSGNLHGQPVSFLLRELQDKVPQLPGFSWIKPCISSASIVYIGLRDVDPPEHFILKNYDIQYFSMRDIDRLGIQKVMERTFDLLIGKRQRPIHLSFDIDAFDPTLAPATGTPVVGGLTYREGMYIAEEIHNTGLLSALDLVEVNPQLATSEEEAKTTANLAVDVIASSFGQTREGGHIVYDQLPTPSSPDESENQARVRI
Assay: in vitro enzyme assay to detect the production of urea directly proportional to the activity of Arginase II
Type: functional
Set-up: scale not given: in the data most compounds retested in dose-response had high values
Details: 33.3 µM
metric: Percent Effect (%)
Give your result in % as a bare value.

# count of solved cases: 4
molecule | Percent Effect / %
NC(=O)CN1CCC(NC(=O)c2ccn(-c3cccc(F)c3)n2)CC1 | 3.97
CCc1nccn1C1CCCN(C(=O)c2ccc3[nH]c(=O)[nH]c3c2)C1 (stereo unspecified) | 2.85
COCc1noc(C2(c3ccc(OC)cc3)CCOCC2)n1 | 2.86
CCOC(CC)C(=O)NCc1ccnc(Oc2ccc(F)cc2)c1 (stereo unspecified) | 4.29

Provide Percent Effect value for the following molecule: Cc1cc2n(n1)CC(CNC1CCN(Cc3ccccc3C)CC1)CN2 (stereo unspecified)
-2.73

Provide Percent Effect value for the following molecule: CC(NC(=O)NCCCn1cccn1)c1cccnc1 (stereo unspecified)
-3.12
